# targetSystem: DNA topoisomerase 1 (Homo sapiens) (UniProt P11387)
# Sequence (P11387 whole entry): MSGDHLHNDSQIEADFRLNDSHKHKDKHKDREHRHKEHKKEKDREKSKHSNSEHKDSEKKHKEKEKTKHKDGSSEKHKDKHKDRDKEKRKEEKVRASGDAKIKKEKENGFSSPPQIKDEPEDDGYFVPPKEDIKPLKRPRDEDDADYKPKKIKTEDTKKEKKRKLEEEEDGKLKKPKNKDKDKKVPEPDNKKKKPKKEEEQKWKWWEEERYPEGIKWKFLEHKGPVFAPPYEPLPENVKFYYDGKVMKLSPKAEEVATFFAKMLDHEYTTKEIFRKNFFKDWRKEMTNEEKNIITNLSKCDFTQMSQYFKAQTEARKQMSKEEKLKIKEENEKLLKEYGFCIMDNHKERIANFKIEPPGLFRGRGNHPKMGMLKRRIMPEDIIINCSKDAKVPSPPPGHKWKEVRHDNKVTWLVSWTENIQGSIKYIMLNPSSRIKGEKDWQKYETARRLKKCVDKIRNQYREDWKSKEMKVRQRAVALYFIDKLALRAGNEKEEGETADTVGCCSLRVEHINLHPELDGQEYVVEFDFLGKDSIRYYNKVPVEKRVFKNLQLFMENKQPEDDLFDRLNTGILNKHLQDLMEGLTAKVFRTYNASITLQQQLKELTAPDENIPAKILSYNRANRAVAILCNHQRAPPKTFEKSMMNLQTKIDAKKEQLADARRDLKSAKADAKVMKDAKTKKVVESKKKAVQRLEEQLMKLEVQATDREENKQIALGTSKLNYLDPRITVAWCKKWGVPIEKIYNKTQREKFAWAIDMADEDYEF
# testName: DNA topoisomerase I cleavage at 1 uM relative to SN38
# Assay type: functional
Activity of 0.6 or higher: TRUE. Under 0.6: FALSE.

CCC1(O)C(=O)Cc2c1cc1n(c2=O)Cc2cc3cc(O)ccc3nc2-1 (configuration not stated); TRUE
CCC1(O)C(=O)Cc2c1cc1n(c2=O)Cc2cc3cc(F)c(Cl)cc3nc2-1 (configuration not stated); FALSE
CCC1(O)C(=O)Cc2c1cc1n(c2=O)Cc2cc3cc(C)c(C)cc3nc2-1 (configuration not stated); FALSE

q: Answer whether Activity of CCC1(O)C(=O)Cc2c1cc1n(c2=O)Cc2cc3cc4c(cc3nc2-1)OCO4 (configuration not stated) is greater than or equal to 0.6.
a: TRUE

q: Could you verify whether the entry "CC[C@@]1(O)C(=O)OCc2c1cc1n(c2=O)Cc2cc3ccccc3nc2-1" shows Activity of no less than 0.6?
a: TRUE

q: Test whether the compound CCC1(O)C(=O)Cc2c1cc1n(c2=O)Cc2cc3cc(F)c(F)cc3nc2-1 (configuration not stated) records Activity of 0.6 or higher.
a: TRUE

q: Form field: Activity at least 0.6? Entry: CCC1(O)C(=O)Cc2c1cc1n(c2=O)Cc2cc3cc(OC)ccc3nc2-1 (configuration not stated)
a: TRUE

q: Decide: is the reported value of Activity for CCC1(O)C(=O)Cc2c1cc1n(c2=O)Cc2cc3ccccc3nc2-1 (configuration not stated) equal to or greater than 0.6?
a: TRUE

----------
# targetSystem: UniProtKB P11387
# testName: DNA topoisomerase I cleavage at 1 uM relative to SN38
# Type: functional
measurementKind: Activity
Enter a number only.

# example entries with known answers
CC[C@@]1(O)C(=O)OCc2c1cc1n(c2=O)Cc2cc3c(CN(C)C)c(O)ccc3nc2-1; 0.88
CCC1(O)C(=O)Cc2c1cc1n(c2=O)Cc2cc3cc(C)c(Cl)cc3nc2-1 (centres undefined); 0.3
CCC1(O)CC(=O)c2c1cc1n(c2=O)Cc2cc3ccccc3nc2-1 (centres undefined); 0.27

# next compound below
q: // lookup Activity for CCC1(O)C(=O)Cc2c1cc1n(c2=O)Cc2cc3cc(Cl)ccc3nc2-1 (centres undefined)
a: 0.61
